Where these numbers come from: the supplement of paper PMC10567573

- PROCEDURE TEXT: protein stability index of a GFP-peptide fusion (GPS, HEK-293T) (PSI 1-6); higher = more stable;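 further: 24-mer peptide tiles fused after GFP, lentivirally expressed, FACS-sorted into six equal bins by GFP/DsRed ratio, decoded by Illumina sequencing, PSI is the read-weighted mean bin number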
- PARTICULARS: treatment: DMSO; c terminus: a fixed tail appended

PRIMARY SEQUENCE | protein stability index
KTYHYLYLAMLERFQDGDNILEKE [FEM1B] | 2.03
YGRSDVVVLCFSIANPNSLHHVKT [RHOBTB2] | 3.33
QAQPLRTTSTLASSLPGHAAKTLP [EHMT1] | 4.33
APFTDEQLYMEQFTKANFWYQPSF [CARM1] | 2.31
IVTWFMLLYAQGLLAIQFLEFFYG [SLC19A2] | 3.28
TQVKVVKFSYMWTINNFSFCREEM [SPOPL] | 2.65
MELLRTITYQPAASTKMCEQALGK [PLK2] | 2.46
LVDNVYCIGQRRFHTMDELVEHYK [NCK2] | 3.68
SLRSSSSKLAQLTLEQILEHLDNL [INTS3] | 2.31
SEEAPSTSGMGFHAPKIGSNGVEM [SDE2] | 4.92
MLKRPVLLHLHQTAHADEFDCPSE [STEAP1] | 3.73
VVKFVNFLLVNGFQTAIDIFEDRI [TRAF3IP2] | 2.33
DPSSTKPGTLLKTSPSPERSLLLK [TRIM14] | 4.59
ENRGIVVLGINRAYGKNSLSKNLI [AUH] | 2.84
HTPTPFKNALEKYGPLKPLPQTPH [MYBL2] | 3.56
RLLQASGGGLTGVSGSHFVGVDGV [PCDHGA10] | 2.78
NRNHNEGMVTRCIIEVLSNALSKS [CHGB] | 2.25
QEARERWNFDFVTETPLEGDFAWE [CDKN1A] | 4.39
KEERKTEVVMNSQQTPVGTPKDKR [PALM] | 5.43
EQRDQLERTKSRLVNTSENLSKSR [VTI1B] | 5.18
FLIEGPLINTIRVVCASYEDYGHW [PLEKHN1] | 3.56
YEYTSCTTFSTTSGYMEGYYTFHF [FBXO3] | 3.37
LPGLAGPSGEMVKSTTSLTSSSTS [MLH1] | 4.83
EVYYDGQWGTVCDDDFSIHAAHVV [LOXL2] | 2.62
MTEMSFLSSEVLVGDLMSPFDQSG [ATF4] | 3.37
SVGHNWRKRMGTRRGRHEQSPTSR [C22orf15] | 4.32
DAVTIPCGHTFCRLCLPALSQMGA [TRIM15] | 2.47

###

- PROCEDURE TEXT: protein stability index of a GFP-peptide fusion (GPS, HEK-293T) (PSI 1-6); higher = more stable
- PARTICULARS: treatment: DMSO; c terminus: a fixed tail appended
Rule: protein stability index of 5 or more gives y; anything lower gives n.

PRIMARY SEQUENCE | CLASS
ARMGFNASSMLRKSQLGFLNVTNY [DCAF4] | n
RDSSFLISGGFDRTVAIWDVAEGY [WDR88] | n
KAKRNRTCRPPSSSESSSDSDNSG [ANKRD17] | y
NEGAIDCVNYEGQSAYDVADMLKQ [DLC1] | n
REEDFPSLREYNDFLEEVEEIVFN [MNAT1] | n
ERMWAAIQSWDINSRRNINYRSFE [ZER1] | n
AFHEPQVGLIQAAQQLLCDEQAPQ [DFFB] | n
YQNHKITQLKIENNPFAKGFRGSD [TBX5] | n
AIDQYRVCQEVLERSRDVVDDVSV [RHOBTB2] | n
VAAAAAATTAATAAATTTTTTSAA [SNAP91] | y
VRGPLQDSSWYEPSAELVQTRMAV [ZNF232] | n
NMPETLPNNSCYSAGIAKLEEGDE [TNFSF13B] | y
